Please find below pIC50 data on Tyrosine-protein kinase JAK1 (Homo sapiens, UniProt P23458) compiled from the literature.
pIC50: −log10 of the molar value.
observed_property: pIC50

| molecule | observed_property | observed_measurement |
| --- | --- | --- |
| O=C1NCCCOCc2cc(ccc2N2CCOCC2)Nc2nccc(n2)-c2ccc1cc2 | pIC50 | < 5.00 |
| N#CCC(C1CCCC1)n1cc2c(n1)C(=O)c1c[nH]c3nccc-2c13 (centres unmarked) | pIC50 | 7.00 to 8.00 |
| Cc1cc(Nc2ncc(C)c(N3CC4(C3)CC4(F)F)n2)sn1 | pIC50 | > 8.00 |
| CN(c1ncnc2[nH]ccc12)C1CCC2(CC1)CCN(C(=O)CCS(N)(=O)=O)CC2 | pIC50 | 5.00 to 6.00 |
| Cc1cnc2nc1-c1ccc(cc1)C(=O)NCCCCOCc1cc(ccc1N1CCOCC1)N2 | pIC50 | 7.00 to 7.96 |
